All values here come from patent US20250295799A1.

- target.desc: T1, human glypican-3 (GPC3) (human, UniProt P51654 25-554)
- T1 construct: Endogenous on JHH-7, JHH-5, HepG2 and NCI-H446 tumour cells, or transiently expressed on CHO-S cells from a pTT5 plasmid; also called hGPC3; huGPC3
- procedure.text: flow cytometry on JHH-5 cells (GPC3-mid);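 note: antibody binding to cells at 4 °C for 24 h, detected with anti-human AF647 as geometric mean fluorescence of live cells versus antibody concentration, fitted by specific binding with Hill slope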
I'd appreciate it if you marked entries true (1) when Kd is lower than 0.2 nM and false (0) when it is not.

Please review the following examples before continuing.
| binder | category |
| --- | --- |
| H18L6_LC_G34T mAb, v40209 (antibody, human IgG1, kappa, V domains shown, M3-H18L6 chains with the stated light chain point mutation, IgG1/kappa) VH: QVQLVQSGAEVKKPGSSVKVSCKASGYTFTDYEMHWVKQAPGHGLEWIGAIDPETGDTAYNQKFKGKATLTADTSTSTAYMELSSLRSEDTAVYYCTRYFSFAYWGQGTLVTVSS VL: EIVLTQSPATLSLSPGERATISCRSSQSLRHSNTNTYLQWYQQKPGQAPRLLIYKVSNRFSGVPARFSGSGSGTDFTLTISSLEPEDFAVYFCYQSKHVPYTFGGGTKVEIKR | true (1) |
| H18L6_LC_G34S mAb, v40210 (antibody, human IgG1, kappa, V domains shown, M3-H18L6 chains with the stated light chain point mutation, IgG1/kappa) VH: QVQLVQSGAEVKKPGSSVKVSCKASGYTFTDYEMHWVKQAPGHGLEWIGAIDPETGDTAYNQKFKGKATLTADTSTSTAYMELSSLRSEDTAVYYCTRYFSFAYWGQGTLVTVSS VL: EIVLTQSPATLSLSPGERATISCRSSQSLRHSNSNTYLQWYQQKPGQAPRLLIYKVSNRFSGVPARFSGSGSGTDFTLTISSLEPEDFAVYFCYQSKHVPYTFGGGTKVEIKR | true (1) |
| codrituzumab (v37575) (antibody, human IgG1, kappa, V domains shown, also called GC33; RG-7686) VH: QVQLVQSGAEVKKPGASVKVSCKASGYTFTDYEMHWVRQAPGQGLEWMGALDPKTGDTAYSQKFKGRVTLTADKSTSTAYMELSSLTSEDTAVYYCTRFYSYTYWGQGTLVTVSS VL: DVVMTQSPLSLPVTPGEPASISCRSSQSLVHSNRNTYLHWYLQKPGQSPQLLIYKVSNRFSGVPDRFSGSGSGTDFTLKISRVEAEDVGVYYCSQNTHVPPTFGQGTKLEIKR | true (1) |
| H18L6_LC_G34A mAb, v40212 (antibody, human IgG1, kappa, V domains shown, M3-H18L6 chains with the stated light chain point mutation, IgG1/kappa) VH: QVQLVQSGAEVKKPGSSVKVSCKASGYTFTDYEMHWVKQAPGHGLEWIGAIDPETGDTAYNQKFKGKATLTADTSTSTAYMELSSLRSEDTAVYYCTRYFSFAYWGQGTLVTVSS VL: EIVLTQSPATLSLSPGERATISCRSSQSLRHSNANTYLQWYQQKPGQAPRLLIYKVSNRFSGVPARFSGSGSGTDFTLTISSLEPEDFAVYFCYQSKHVPYTFGGGTKVEIKR | false (0) |
| H18L6_LC_G34E mAb, v40204 (antibody, human IgG1, kappa, V domains shown, M3-H18L6 chains with the stated light chain point mutation, IgG1/kappa) VH: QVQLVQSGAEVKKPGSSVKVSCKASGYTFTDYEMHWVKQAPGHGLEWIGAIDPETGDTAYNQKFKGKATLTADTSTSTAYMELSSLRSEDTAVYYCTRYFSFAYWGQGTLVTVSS VL: EIVLTQSPATLSLSPGERATISCRSSQSLRHSNENTYLQWYQQKPGQAPRLLIYKVSNRFSGVPARFSGSGSGTDFTLTISSLEPEDFAVYFCYQSKHVPYTFGGGTKVEIKR | true (1) |

# input Given the entry H18L6_LC_G34R mAb, v40206 (antibody, human IgG1, kappa, V domains shown, Full-size IgG1/kappa) VH: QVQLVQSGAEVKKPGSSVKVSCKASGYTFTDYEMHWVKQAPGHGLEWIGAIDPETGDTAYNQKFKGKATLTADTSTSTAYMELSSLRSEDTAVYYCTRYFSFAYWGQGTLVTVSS VL: EIVLTQSPATLSLSPGERATISCRSSQSLRHSNRNTYLQWYQQKPGQAPRLLIYKVSNRFSGVPARFSGSGSGTDFTLTISSLEPEDFAVYFCYQSKHVPYTFGGGTKVEIKR , would its reported Kd be below 0.2 nM?
# output true (1)

# input Identify whether the binder H18L6_LC_G34D mAb, v40203 (antibody, human IgG1, kappa, V domains shown) VH: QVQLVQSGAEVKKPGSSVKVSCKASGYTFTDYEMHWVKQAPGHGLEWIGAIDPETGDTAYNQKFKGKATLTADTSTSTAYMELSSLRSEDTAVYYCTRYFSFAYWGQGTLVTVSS VL: EIVLTQSPATLSLSPGERATISCRSSQSLRHSNDNTYLQWYQQKPGQAPRLLIYKVSNRFSGVPARFSGSGSGTDFTLTISSLEPEDFAVYFCYQSKHVPYTFGGGTKVEIKR records Kd below 0.2 nM.
# output false (0)
